details: basic group

{"Compound": "CCCC(=O)C1(c2cccc(O)c2)CCN(C)CC1", "pKa": 8.62}
{"Compound": "COc1ccc(-c2cn3ccsc3n2)c(OC)c1", "pKa": 4.67}
{"Compound": "c1nc2c(ccc3c4c(cnc32)CCCC4)c2c1CCCC2", "pKa": 6.23}
{"Compound": "Cc1cnc(N)s1", "pKa": 5.71}
{"Compound": "CCC(C)C(=O)CCN1CCOCC1 (stereo not given)", "pKa": 7.07}
{"Compound": "COc1cc(OC)c(OC)c(C(=O)N[C@H]2C[C@H]3CC[C@@H](C2)N3Cc2ccccc2)c1", "pKa": 8.84}
{"Compound": "CC(CN1c2ccccc2Sc2ccccc21)N(C)C (stereo not given)", "pKa": 8.65}
{"Compound": "O=C([O-])c1cnc2ccccc2c1", "pKa": 4.68}
{"Compound": "CCC(=O)O[C@@]1(c2ccccc2)CCN(C)C[C@H]1C", "pKa": 8.66}
{"Compound": "Cc1nc2cc(C(=O)[O-])ccc2[nH]1", "pKa": 6}

====

settings: acidic group
Decide using pKa: a value greater than or equal to 5 is Condition met, a smaller one is Condition not met.

{"Molecule": "Cn1c(=O)ccc2ccccc21", "Class": "Condition not met"}
{"Molecule": "OC(c1ccncc1)(c1ccccn1)c1ccccn1", "Class": "Condition met"}
{"Molecule": "CN(C)Cc1ccccc1O", "Class": "Condition met"}
{"Molecule": "CC(=O)Nc1nnn[nH]1", "Class": "Condition not met"}
{"Molecule": "CC1CCC[C@H](C(C)C(=O)O)C1 (stereo not given in full)", "Class": "Condition not met"}
{"Molecule": "Cc1n[nH]c(C)c1[N+](=O)[O-]", "Class": "Condition met"}
{"Molecule": "COC(=O)C[C@@H]1[C@@H](C(=O)O)[NH2+]C[C@H]1C(C)O (stereo not given in full)", "Class": "Condition not met"}
{"Molecule": "O=c1oc2c(O)c(O)cc3c(=O)oc4c(O)c(O)cc1c4c23", "Class": "Condition met"}
{"Molecule": "CC(=O)Nc1ccc(O)c([N+](=O)[O-])c1", "Class": "Condition met"}
{"Molecule": "[NH3+]CCc1ccc(O)cc1", "Class": "Condition met"}
{"Molecule": "COc1cc(S(C)=O)ccc1-c1nc2nnccc2[nH]1 (stereo not given)", "Class": "Condition met"}
{"Molecule": "Sc1ccc2ccccc2[nH+]1", "Class": "Condition not met"}
{"Molecule": "CC(C)=CC(=O)/C=N/O", "Class": "Condition met"}
{"Molecule": "O=C(O)c1cc2ccccc2o1", "Class": "Condition not met"}
{"Molecule": "C[NH2+]CC(=O)c1ccc(O)cc1", "Class": "Condition met"}
{"Molecule": "O=Nc1c(O)ccc2ncsc12", "Class": "Condition met"}
{"Molecule": "[NH3+]CCCCCCCCCCCC(=O)O", "Class": "Condition not met"}
{"Molecule": "Brc1cccc(-c2nnn[nH]2)c1", "Class": "Condition not met"}
{"Molecule": "NC(=S)c1ccc(Br)cc1", "Class": "Condition met"}
{"Molecule": "Cc1cc(Nc2ccc([O-])cc2)cc(C)c1O", "Class": "Condition met"}

====

Collected pKa values appear next to each entry.
conditions: acidic group

{"Smi": "c1ccc(-c2nc3ncncc3[nH]2)cc1", "pKa": 8.09}
{"Smi": "C[NH+](C)CC[SeH]", "pKa": 4.74}
{"Smi": "Cc1ccc(C(=O)C(=O)O)cc1", "pKa": 1.52}
{"Smi": "C[C@@H]1[NH2+][C@H](CCCCCCCC(=O)O)CC[C@@H]1O", "pKa": 4.6}
{"Smi": "Cc1ccc(C(=O)NS(=O)(=O)c2ccc(N)cc2)cc1C", "pKa": 4.66}
{"Smi": "O=[N+]([O-])c1ccc(O)c(C[NH+]2CCCCC2)c1", "pKa": 5.88}
{"Smi": "S=c1[nH]c(=S)c2[nH]cnc2[nH]1", "pKa": 5.02}

====

conditions: basic group
Use pKa to assign classes; range list: low (below 6), mid (6 to below 8), high (8 or more)

{"Compound": "C[NH2+]CC(=O)NCCc1c[nH]cn1", "Class": "mid"}
{"Compound": "CCCCCCCCCCCCN(CCO)CC(C)O (centres undefined)", "Class": "mid"}
{"Compound": "N[C@H]1CCCC[C@@H]1O", "Class": "high"}
{"Compound": "Cn1cnc2ncnc([O-])c21", "Class": "high"}
{"Compound": "Nc1ccccc1NC(=O)c1ccc([N+](=O)[O-])cc1", "Class": "low"}
{"Compound": "CNc1nc2ncncc2[nH]1", "Class": "low"}
{"Compound": "Cc1ccc2ncccc2c1", "Class": "low"}
{"Compound": "Cc1c([N+](=O)[O-])ccc2c(NCCC[NH+](C)C)ccnc12", "Class": "mid"}
{"Compound": "CC(C)c1nc2ccccc2[nH]1", "Class": "mid"}
{"Compound": "Cc1ccc2nc(C)c3c(c2c1)OC(C)C3C (centres undefined)", "Class": "mid"}
{"Compound": "Nc1ccc2[nH]c(Cc3ccccc3)nc2c1", "Class": "mid"}
{"Compound": "Nc1ccccc1S(N)(=O)=O", "Class": "low"}
{"Compound": "c1ccc(CC2=NCCC2)cc1", "Class": "mid"}
{"Compound": "C/C(=C\\C=C\\C(C)C(=O)[O-])[C@H]1CN[C@H](C(=O)[O-])[C@H]1CC(=O)[O-] (some centres undefined)", "Class": "high"}
{"Compound": "CC[C@]12CCCN3CCc4c(n(c5ccccc45)CC1)[C@@H]32", "Class": "mid"}
{"Compound": "CCCCCn1ccnc1", "Class": "mid"}
{"Compound": "CNC(=N)CCNS(=O)(=O)c1ccc(C)cc1", "Class": "high"}
{"Compound": "CN(C)C[C@@H]1[C@H](CO)[C@H]2C=C[C@@H]1C2", "Class": "high"}
{"Compound": "N[C@@H](CCCCN1C(=O)C[C@H](N)C1=O)C(=O)[O-]", "Class": "high"}
{"Compound": "C/N=c1/sc2c(n1C)CCCC2", "Class": "high"}
{"Compound": "COc1ccc(/N=N/c2c(N)n[nH]c2N)cc1", "Class": "low"}
{"Compound": "Cc1ccc(N)cc1C", "Class": "low"}
{"Compound": "Nc1ccc(-c2ccccc2)cc1", "Class": "low"}

====

Collected pKa values appear next to each entry.
settings: basic group

{"Molecule": "[S-]c1ncnc2nccnc12", "pKa": 6.81}
{"Molecule": "O=C(Cc1cnccn1)c1ccccc1", "pKa": 0.33}
{"Molecule": "NC(=O)NOCCC(N)C(=O)[O-] (centres undefined)", "pKa": 8.9}
{"Molecule": "OCc1ccc(-c2nccc3c2[nH]c2ccccc23)o1", "pKa": 5.7}
{"Molecule": "NCCc1ccc(Cl)cc1", "pKa": 9.66}
{"Molecule": "NNC(=O)[C@H](Cc1c[nH]cn1)NC(=O)OCc1ccccc1", "pKa": 6.1}
{"Molecule": "CN(C)Cc1cc(C(=O)c2ccccc2)ccc1[O-]", "pKa": 10.2}
{"Molecule": "O=C(O)c1ccc[n+]([O-])c1", "pKa": 0.41}
{"Molecule": "CN(C)[C@H]1CC[C@@H](C)CC1", "pKa": 10.5}
{"Molecule": "Nc1ccc(-c2ncc(-c3ccc(Cl)cc3)o2)cc1", "pKa": 2.87}
{"Molecule": "CC(=O)C(CN1CCOCC1)c1ccccc1 (centres undefined)", "pKa": 6.23}
{"Molecule": "CCCCCCN(CCO)CC(C)O (centres undefined)", "pKa": 9}
{"Molecule": "CCCCc1nc(N)c2ncsc2n1", "pKa": 3.49}
{"Molecule": "CCN(CC)CC[NH+](CC)CC", "pKa": 6.18}
{"Molecule": "Clc1cc(-c2ccccc2)nnc1NCCN1CCOCC1", "pKa": 6.64}
{"Molecule": "CN[C@H]1C(C)[C@@H]1[NH2+]C (some centres undefined)", "pKa": 5.68}
{"Molecule": "Cc1cc(C)n(Cc2cc(C)n(C)n2)n1", "pKa": 3.39}
{"Molecule": "CC1(C)S[C@H]2C(C(=O)[O-])[NH+]=C(CCCC(N)C(=O)[O-])N2C1C(=O)[O-] (some centres undefined)", "pKa": 7.6}
{"Molecule": "COCCN(C)C", "pKa": 8.96}
{"Molecule": "N#Cc1ccccc1N", "pKa": 0.95}
{"Molecule": "Clc1cn[nH]c1", "pKa": 1.24}
{"Molecule": "c1ccc(-c2cccnc2)nc1", "pKa": 4.42}
{"Molecule": "COc1ccc2ncccc2c1", "pKa": 5.05}
{"Molecule": "Nc1ccc2ccc([N+](=O)[O-])cc2c1", "pKa": 3.13}
{"Molecule": "C[NH+]1CCCC1c1ccc(Cl)nc1 (centres undefined)", "pKa": -1.3}
{"Molecule": "CCN(CC)CCCC(C)=O", "pKa": 10.1}
{"Molecule": "CCN1CCC[C@@H]1CNC(=O)c1c([O-])cccc1OC", "pKa": 9.54}
{"Molecule": "CN(C)c1ccc(N(C)C)cc1", "pKa": 6.37}
{"Molecule": "N=C(N)Nc1nc(N)nc(NC(N)=[NH2+])n1", "pKa": 7}
